- System: L1210 leukemia ip in BDF1 mice, survival T/C
- assay.procedure: NCI In Vivo Anticancer Drug Screen. Data for tumor model L1210 Leukemia (intraperitoneal) in B6D2F1 (BDF1) mice
- condition.context: endpoint: mean survival time; dose: 400.0 mg/kg/injection; schedule: Q04DX003 (ip); vehicle: gum acacia; higher = longer survival
Toxic doses and inconclusive results are not listed.
assay.metric: T/C

Query Cc1ccc2ncccc2c1N (tested in a mixture with another compound) yields T/C of 94 % of control

Query O=C(NCCc1nc(C(=O)O)cs1)c1ccccc1 yields T/C of 97 % of control

Query CCOC(=O)c1cnc(SCCN2C(=O)c3ccccc3C2=O)[nH]c1=O yields T/C of 97 % of control

Query O=C1c2cccc3cccc(c23)C(=O)N1CCCCCCCCCCN1C(=O)c2cccc3cccc(c23)C1=O yields T/C of 90 % of control

====

Would you kindly list T/C for each of these molecules?
- Test system: L1210 leukemia ip in BDF1 mice, survival T/C
- assay.procedure: NCI In Vivo Anticancer Drug Screen. Data for tumor model L1210 Leukemia (intraperitoneal) in B6D2F1 (BDF1) mice
- condition.context: endpoint: mean survival time; dose: 10.0 mg/kg/injection; schedule: Q01DX001 (ip); vehicle: saline; higher = longer survival
Toxic doses and inconclusive results are not listed.

Query c1ccc2c(c1)ccc1c[n+]3c4ccccc4ccc3n12 yields T/C of 109 % of control

Query COc1ccc(C[C@H](N)C(=O)NC2C(CO)OC(n3cnc4c(N(C)C)ncnc43)C2O)cc1 (some centres undefined) yields T/C of 97 % of control

Query O=Nc1ccc(N(CCO)CCO)cc1 yields T/C of 97 % of control

Query S=C(NCc1ccccc1)[S][Sb]([S]C(=S)NCc1ccccc1)[c]1ccccc1 yields T/C of 109 % of control

====

- System: L1210 leukemia ip in BDF1 mice, survival T/C
- assay.procedure: NCI In Vivo Anticancer Drug Screen. Data for tumor model L1210 Leukemia (intraperitoneal) in B6D2F1 (BDF1) mice
- condition.context: endpoint: mean survival time; dose: 200.0 mg/kg/injection; schedule: Q04DX003 (ip); vehicle: saline sonified; higher = longer survival
Inconclusive results and toxic doses are left out.
Would you kindly list T/C for each of these molecules?

Query ClCCCCCCCCc1ccccc1 yields T/C of 102 % of control

Query O=c1[nH]cn[nH]1 yields T/C of 114 % of control

Query COc1ccc(C=C2c3ccccc3-c3ccccc32)cc1 yields T/C of 100 % of control

Query O=c1[nH]c(=S)c2c3c(sc2[nH]1)CCCC3 yields T/C of 97 % of control

====

- Test system: L1210 leukemia ip in BDF1 mice, survival T/C
- assay.procedure: NCI In Vivo Anticancer Drug Screen. Data for tumor model L1210 Leukemia (intraperitoneal) in B6D2F1 (BDF1) mice
- condition.context: endpoint: mean survival time; dose: 100.0 mg/kg/injection; schedule: Q01DX009 (ip); vehicle: Klucel (hydroxypropylcellulose) (HPC); higher = longer survival
Inconclusive results and toxic doses are left out.
Would you kindly list T/C for each of these compounds?

Query Cc1cc(C)c(-c2c(Br)c(OC(=O)c3ccc([N+](=O)[O-])cc3)c(-c3c(C)cc(C)c(Br)c3C)c(Br)c2OC(=O)c2ccc([N+](=O)[O-])cc2)c(C)c1Br yields T/C of 101 % of control

Query c1ccc(CNCCOB(OCCNCc2ccccc2)OCCNCc2ccccc2)cc1 yields T/C of 94 % of control

Query CC(=O)COc1cccc([N+](=O)[O-])c1 yields T/C of 92 % of control

Query COc1ccc(Cl)cc1NC(=O)Nc1ccc(S(N)(=O)=O)cc1 yields T/C of 102 % of control

Query CC(=O)c1ccc(OC(=O)Nc2ccc(C)cc2)cc1 yields T/C of 109 % of control

====

Would you kindly list T/C for each of these compounds?
- Test system: L1210 leukemia ip in BDF1 mice, survival T/C
- assay.procedure: NCI In Vivo Anticancer Drug Screen. Data for tumor model L1210 Leukemia (intraperitoneal) in B6D2F1 (BDF1) mice
- condition.context: endpoint: mean survival time; dose: 100.0 mg/kg/injection; schedule: Q04DX003 (ip); vehicle: saline with Tween-80; higher = longer survival
Toxic doses and inconclusive results are not listed. Peptide text beside a SMILES is read from it. * marks the point of attachment. Bn = c1ccc(C*)cc1; For = O=C*

Query CCOc1ccn(CC(=O)c2ccc(Cl)s2)c(=O)n1 yields T/C of 100 % of control

Query COc1ccc(NC(=O)Nc2ccc(C)cc2C)cc1 yields T/C of 93 % of control

Query COc1ccccc1NC(=O)Nc1ccc(N(C)C)cc1 yields T/C of 86 % of control

Query CSc1ccc2[nH]c3c(c2c1)CCNC3 yields T/C of 108 % of control

Query CCC(CC)OC(=O)Nc1cccc(OC(=O)NC)c1 yields T/C of 104 % of control

Query C1CCC2C(C1)CCCC2C1C2C3CCCCC3CCC2C2CCC3CCCCC3C21 (stereo not given) yields T/C of 91 % of control

Query COc1cc(OC)c2c(c1Cl)OC1(C(=O)C=CCC1C)C2=O (stereo not given) yields T/C of 98 % of control

Query COC(=O)c1ccc([N+](=O)[O-])cc1O yields T/C of 101 % of control

Query CC(=O)Nc1ccc2c(c1)-c1ccccc1C2=O yields T/C of 98 % of control

Query O=C(O)c1ccc(OCCCOc2ccccc2)c(Cl)c1 yields T/C of 96 % of control

Query C=Cc1ccc(N)cc1 yields T/C of 87 % of control

Query CN(C)CCCC(=O)O yields T/C of 106 % of control

Query O=C(CSc1cc(-c2ccc(Cl)cc2)s[s+]1)c1ccccc1 yields T/C of 93 % of control

Query Cc1cc(C)c(NC(=S)NC(=O)/C=C/c2ccccc2)c(C)c1 yields T/C of 92 % of control

Query CC#CC(=O)SCCNC(=O)CC yields T/C of 103 % of control

Query CC(C)CC(NC(=O)C(Cc1ccc(OCc2ccccc2)cc1)NC=O)C(=O)O (stereo not given) (For-Tyr(Bn)-Leu-OH; configuration not given here) yields T/C of 97 % of control

Query CN(C)C(=O)c1cccc([N+](=O)[O-])c1 yields T/C of 97 % of control

Query Nc1ccc2c(c1)Cc1ccccc1-2 yields T/C of 101 % of control

Query Cc1ccc2c(c1)C(=NCCCN=C1C(=O)Nc3ccc(C)cc31)C(=O)N2 yields T/C of 93 % of control

Query CC(=O)OC1(C2(OC(C)=O)C=CC(=NS(=O)(=O)c3ccccc3)C=C2)C=CC(=NS(=O)(=O)c2ccccc2)C=C1 (stereo not given) yields T/C of 94 % of control

Query Cc1c(Cl)cccc1N1C(=O)CC(Sc2ccccc2N)C1=O (stereo not given) yields T/C of 94 % of control

Query CCCCN1C(=O)c2cccnc2C1=O yields T/C of 103 % of control

Query CCOC(C(=O)OC1CCN(C)CC1)(c1ccccc1)c1ccccc1 yields T/C of 93 % of control

Query CN(C)Cc1c[nH]c2ccsc12 yields T/C of 98 % of control

Query c1ccc(OCC2CO2)cc1 (stereo not given) yields T/C of 95 % of control

====

- Test system: L1210 leukemia ip in BDF1 mice, survival T/C
- assay.procedure: NCI In Vivo Anticancer Drug Screen. Data for tumor model L1210 Leukemia (intraperitoneal) in B6D2F1 (BDF1) mice
- condition.context: endpoint: mean survival time; dose: 400.0 mg/kg/injection; schedule: Q01DX001 (ip); vehicle: saline; higher = longer survival
Inconclusive results and toxic doses are left out.
assay.metric: T/C

Query CCCCCCSc1n[nH]c(=O)[nH]c1=O yields T/C of 108 % of control

Query COC1(OC)C2(Cl)C3C4C5(OC(C)=O)C(=O)C3(OC(C)=O)C3C5C(Cl)(C41Cl)C32Cl (stereo unspecified) yields T/C of 96 % of control

Query COc1ccc(Cc2ccc(OC)cc2)cc1 yields T/C of 90 % of control

Query CCCCCCCNC(=S)NNC(=O)CCCC(=O)NNC(=S)NCCCCCCC yields T/C of 90 % of control

Query CNc1ccc(Nc2cc(S(=O)(=O)O)c(N)c3c2C(=O)c2ccccc2C3=O)cc1 yields T/C of 93 % of control

Query COc1ccc(C=NCCN=Cc2ccc(OC)c(OC)c2)cc1OC yields T/C of 102 % of control

Query CCCCC(=O)N/N=C\c1cccc(OCc2ccccc2)c1 yields T/C of 109 % of control

Query Cc1ccc([P+](=O)O)cc1Cl yields T/C of 88 % of control

Query CCCCCCCNC(=O)Nc1ccc(Cl)c(Cl)c1 yields T/C of 97 % of control

Query O=C1C2C(C(=O)N1c1ccccc1)C(c1ccccc1)N(c1ccccc1)C2c1ccccc1 (stereo unspecified) yields T/C of 103 % of control

Query CC(N)C(=O)NC1C(CO)OC(n2cnc3c(N)ncnc32)C1O (stereo unspecified) yields T/C of 101 % of control
